tested on: PC-3 prostate; experiment: NCI tumour cell line growth inhibition, 48 h
Answer each item with its documented TGI.

Look over these answered cases.
CCN(Cc1cc(Cl)cc(C)c1O)Cc1c(O)ccc2ccccc12 | 29.9 µM
O=C(c1ccc(Cl)cc1Cl)N1CCN(C(=O)c2ccc(Cl)cc2Cl)C1=S | 68.3 µM
CNC(=O)[C@H](Cc1c[nH]c2ccccc12)NC(=O)[C@@H](CC(=O)NO)CC(C)C | > 25 µM
ClCCCN1CCN(CCCl)CC1 | > 1000 µM
CCOC(=O)NC(Nc1ccc(F)cc1F)(C(F)(F)F)C(F)(F)F | > 100 µM

# batch: return TGI for each of the 2 compounds below
1. CCN(Cc1ccc(Cl)c(Cl)c1)c1ccc2nc(N)nc(N)c2c1C
2. COP(=O)(OC)C(N)Cc1c[nH]c2ccccc12 (stereo unspecified)

3.16 µM
> 100 µM

# batch: return TGI for each of the 7 compounds below
1. COc1ccc(-c2cc(-c3ccc(C)cc3)n(C3OC(COC(C)=O)C(OC(C)=O)C(OC(C)=O)C3OC(C)=O)c(=S)c2C#N)cc1 (stereo unspecified)
2. O=C(CCN1CCCC1)Nc1ccc2c(Nc3ccc(F)cc3)c3ccccc3nc2c1
3. COc1ccc(CCN2CCCn3c2nc2ccccc2c3=O)cc1
4. N=C1OC(CN2CCN(c3ccccc3)CC2)CN1C(=O)Nc1ccccc1 (stereo unspecified)
5. NCCCn1c(Cl)nc2ccccc21
6. N=c1oc2cc(O)ccc2cc1C(=O)Nc1ccccn1
7. CC(=O)OCC1OC(n2c(C)c(C)cc(C#N)c2=S)C(OC(C)=O)C(OC(C)=O)C1OC(C)=O (stereo unspecified)

["> 100 µM", "3.97 µM", "> 100 µM", "> 100 µM", "> 100 µM", "> 100 µM", "> 100 µM"]

# batch: return TGI for each of the 2 compounds below
1. COc1ccc(/C=C\c2cc(OC)c(OC)c(OC)c2)cc1NC(=O)/C=C/c1ccc(OC)c(OC)c1
2. O=[N+]([O-])c1ccc2c(c1)nc1n2C(c2c(F)cccc2F)SC1 (stereo unspecified)

> 100 µM
> 100 µM
